Recorded Decrease in systolic blood pressure (mmHg) time after administration (hour) 0.5 for the following compounds
# Test system: male spontaneously hypertensive rats
# protocol.text: Decrease in systolic blood pressure in spontaneously hypertensive rats after intravenous bolus injection, indirect (tail-cuff) method
# Type: in vivo, rat
# measurement.parameters: dose 10 mg/kg i.v. bolus, 0.5 hour after administration
Response body: numeric value in mmHg, unit text excluded.

Some entries whose results are on file:
# compound, system.name, readout.unit, value.reported
measured = [
    ("CC(CC(=O)c1ccccc1)N1CCC(=C2c3ccccc3C=Cc3ccccc32)CC1.Cl (stereo not shown) [Example 100]", "male spontaneously hypertensive rats", "mmHg", "−35"),
    ("C1=Cc2ccccc2C(=C2CCN(Cc3cccnc3)CC2)c2ccccc21.Cl.Cl [Example 162]", "male spontaneously hypertensive rats", "mmHg", "−62"),
    ("COc1ccc(CCCN2CCC(=C3c4ccccc4C=Cc4ccccc43)CC2)cc1OC.Cl [Example 201]", "male spontaneously hypertensive rats", "mmHg", "−118"),
]

The record that follows has no Decrease in systolic blood pressure (mmHg) time after administration (hour) 0.5 shown yet.
QUERY: Looking for the measured Decrease in systolic blood pressure (mmHg) time after administration (hour) 0.5 of CCCCCCN1CCC(=C2c3ccccc3C=Cc3ccccc32)CC1.Cl [Example 1] , can you help?
RESULT: −67

* * *

Recorded Decrease in systolic blood pressure (mmHg) time after administration (hour) 0.5 for the following compounds
# Tested on: male spontaneously hypertensive rats
# protocol.text: Decrease in systolic blood pressure in spontaneously hypertensive rats after intravenous bolus injection, indirect (tail-cuff) method
# Assay type: in vivo, rat
# measurement.parameters: dose 10 mg/kg i.v. bolus, 0.5 hour after administration

Some entries whose results are on file:
# compound, system.name, value.reported
data = [
    ("CC(=O)OCC1(CCCCN2CCC(=C3c4ccccc4C=Cc4ccccc43)CC2)CCCCC1.Cl [Example 273]", "male spontaneously hypertensive rats", "−37 mmHg"),
    ("C1=Cc2ccccc2C(=C2CCN(Cc3ccc4ccccc4c3)CC2)c2ccccc21.Cl [Example 212]", "male spontaneously hypertensive rats", "−155 mmHg"),
    ("CC(=O)Nc1ccc(CCCN2CCC(=C3c4ccccc4C=Cc4ccccc43)CC2)cc1.Cl.Cl [Example 249]", "male spontaneously hypertensive rats", "−121 mmHg"),
]

The record that follows has no Decrease in systolic blood pressure (mmHg) time after administration (hour) 0.5 shown yet.
QUERY: Looking for the measured Decrease in systolic blood pressure (mmHg) time after administration (hour) 0.5 of Cl.O=[N+]([O-])c1ccccc1C=CCN1CCC(=C2c3ccccc3C=Cc3ccccc32)CC1 [Example 302] , can you help?
RESULT: −83 mmHg

* * *

Recorded Decrease in systolic blood pressure (mmHg) time after administration (hour) 0.5 for the following compounds
# Tested on: male spontaneously hypertensive rats
# protocol.text: Decrease in systolic blood pressure in spontaneously hypertensive rats after intravenous bolus injection, indirect (tail-cuff) method
# Format: in vivo, rat
# measurement.parameters: dose 10 mg/kg i.v. bolus, 0.5 hour after administration
Response body: numeric value in mmHg, unit text excluded.

# compound, value.reported
records = [
    ("Cl.O=[N+]([O-])c1ccc(C=CCN2CCC(=C3c4ccccc4C=Cc4ccccc43)CC2)cc1", "−115"),
]

QUERY: Looking for the measured Decrease in systolic blood pressure (mmHg) time after administration (hour) 0.5 of `Cl.O=C(NCCN1CCCCC1=C1c2ccccc2C=Cc2ccccc21)C1CCCCC1` , can you help?
RESULT: −111

QUERY: Looking for the measured Decrease in systolic blood pressure (mmHg) time after administration (hour) 0.5 of `C1=Cc2ccccc2C(=C2CCN(CCc3ccccc3)CC2)c2ccccc21.Cl` , can you help?
RESULT: −47

QUERY: Looking for the measured Decrease in systolic blood pressure (mmHg) time after administration (hour) 0.5 of CCCCC(C#N)(CCCN1CCC(=C2c3ccccc3C=Cc3ccccc32)CC1)c1cccc(C(F)(F)F)c1.Cl (stereo not shown) , can you help?
RESULT: −110

* * *

# System: male spontaneously hypertensive rats
# protocol.text: Decrease in systolic blood pressure in spontaneously hypertensive rats after intravenous bolus injection, indirect (tail-cuff) method
# Assay type: in vivo, rat
# measurement.parameters: dose 1 mg/kg i.v. bolus, 0.5 hour after administration
Recorded Decrease in systolic blood pressure (mmHg) time after administration (hour) 0.5 for the following molecules
Response body: numeric value in mmHg, unit text excluded.

Some entries whose results are on file:
# smiles.code, value.reported
measured = [
    ("C1=Cc2ccccc2C(=C2CCNCC2)c2ccccc21.Cl", "−48"),
    ("Cl.Cl.Nc1ccc(C=CCN2CCC(=C3c4ccccc4C=Cc4ccccc43)CC2)cc1", "−125"),
]

The record that follows has no Decrease in systolic blood pressure (mmHg) time after administration (hour) 0.5 shown yet.
QUERY: Looking for the measured Decrease in systolic blood pressure (mmHg) time after administration (hour) 0.5 of `CC(=O)Nc1cccc(CCCN2CCC(=C3c4ccccc4C=Cc4ccccc43)CC2)c1.Cl` , can you help?
RESULT: −100

* * *

# Tested on: male spontaneously hypertensive rats
# protocol.text: Decrease in systolic blood pressure in spontaneously hypertensive rats after intravenous bolus injection, indirect (tail-cuff) method
# Assay type: in vivo, rat
# measurement.parameters: dose 10 mg/kg i.v. bolus, 0.5 hour after administration
Recorded Decrease in systolic blood pressure (mmHg) time after administration (hour) 0.5 for the following compounds
Response body: numeric value in mmHg, unit text excluded.

QUERY: Looking for the measured Decrease in systolic blood pressure (mmHg) time after administration (hour) 0.5 of COc1ccc(C(=O)C(CCN2CCC(=C3c4ccccc4C=Cc4ccccc43)CC2)C(C)C)cc1OC.Cl (stereo not drawn) [Example 275] , can you help?
RESULT: −66

QUERY: Looking for the measured Decrease in systolic blood pressure (mmHg) time after administration (hour) 0.5 of COc1ccc(CN2CCC(=C3c4ccccc4C=Cc4ccccc43)CC2)cc1OC [Example 175] , can you help?
RESULT: −87

QUERY: Looking for the measured Decrease in systolic blood pressure (mmHg) time after administration (hour) 0.5 of Cl.Cl.Nc1ccc(CCCCN2CCC(=C3c4ccccc4C=Cc4ccccc43)CC2)cc1 [Example 195] , can you help?
RESULT: −100

QUERY: Looking for the measured Decrease in systolic blood pressure (mmHg) time after administration (hour) 0.5 of Cl.Cl.Nc1cccc(CCCN2CCC(=C3c4ccccc4C=Cc4ccccc43)CC2)c1 [Example 315] , can you help?
RESULT: −43

QUERY: Looking for the measured Decrease in systolic blood pressure (mmHg) time after administration (hour) 0.5 of COc1cccc(C=CC(=O)N2CCC(=C3c4ccccc4C=Cc4ccccc43)CC2)c1OC [Example 192] , can you help?
RESULT: −25

QUERY: Looking for the measured Decrease in systolic blood pressure (mmHg) time after administration (hour) 0.5 of COc1cc2nc(N3CCC(=C4c5ccccc5C=Cc5ccccc54)CC3)nc(N)c2cc1OC.Cl.Cl [Example 266] , can you help?
RESULT: −133

QUERY: Looking for the measured Decrease in systolic blood pressure (mmHg) time after administration (hour) 0.5 of Cl.O=C1CCCCC1CCCCN1CCC(=C2c3ccccc3C=Cc3ccccc32)CC1 (stereo not drawn) [Example 215] , can you help?
RESULT: −128

QUERY: Looking for the measured Decrease in systolic blood pressure (mmHg) time after administration (hour) 0.5 of COc1cc(CN2CCC(=C3c4ccccc4C=Cc4ccccc43)CC2)cc(OC)c1OC [Example 188] , can you help?
RESULT: −94

QUERY: Looking for the measured Decrease in systolic blood pressure (mmHg) time after administration (hour) 0.5 of COc1cccc(CN2CCC(=C3c4ccccc4C=Cc4ccccc43)CC2)c1OC.Cl [Example 173] , can you help?
RESULT: −98

QUERY: Looking for the measured Decrease in systolic blood pressure (mmHg) time after administration (hour) 0.5 of CCCC(CCN1CCC(=C2c3ccccc3C=Cc3ccccc32)CC1)C(=O)c1ccc(OC)c(OC)c1.Cl (stereo not drawn) [Example 277] , can you help?
RESULT: −27

QUERY: Looking for the measured Decrease in systolic blood pressure (mmHg) time after administration (hour) 0.5 of Cl.O=C(CCCN1CCC(=C2c3ccccc3C=Cc3ccccc32)CC1)N1CCc2ccccc2C1 [Example 204] , can you help?
RESULT: −141

QUERY: Looking for the measured Decrease in systolic blood pressure (mmHg) time after administration (hour) 0.5 of COC1CCC(CCCN2CCC(=C3c4ccccc4C=Cc4ccccc43)CC2)CC1.Cl (stereo not drawn) [Example 324] , can you help?
RESULT: −137

QUERY: Looking for the measured Decrease in systolic blood pressure (mmHg) time after administration (hour) 0.5 of Cl.N#Cc1cccc(CN2CCC(=C3c4ccccc4C=Cc4ccccc43)CC2)c1 [Example 159] , can you help?
RESULT: −27

* * *

# System: male spontaneously hypertensive rats
# protocol.text: Decrease in systolic blood pressure in spontaneously hypertensive rats after intravenous bolus injection, indirect (tail-cuff) method
# Type: in vivo, rat
# measurement.parameters: dose 10 mg/kg i.v. bolus, 0.5 hour after administration
Kind request: treat -100 mmHg as inclusive, so Decrease in systolic blood pressure (mmHg) time after administration (hour) 0.5 at -100 mmHg or higher is TRUE, anything lower is FALSE.

Check out these entries, answers already filled in.
# compound, assigned.label
rows = [
    ("COC(=O)c1c(C)nc(CCCCN2CCC(=C3c4ccccc4C=Cc4ccccc43)CC2)c(C(=O)OC)c1C.Cl", "FALSE"),
    ("Cl.O=C(NCCN1CCCCC1=C1c2ccccc2C=Cc2ccccc21)c1ccc([N+](=O)[O-])cc1", "TRUE"),
    ("Cl.O=C1CCCCN1CCCCN1CCC(=C2c3ccccc3C=Cc3ccccc32)CC1", "TRUE"),
]

QUERY: Quick check: does CCOC(=O)C(CCN1CCC(=C2c3ccccc3C=Cc3ccccc32)CC1)CC1CCCCC1.Cl (centres unmarked) have Decrease in systolic blood pressure (mmHg) time after administration (hour) 0.5 greater than or equal to -100 mmHg?
RESULT: TRUE

QUERY: Quick check: does COC1CCCC(CCCCN2CCC(=C3c4ccccc4C=Cc4ccccc43)CC2)C1.Cl (centres unmarked) have Decrease in systolic blood pressure (mmHg) time after administration (hour) 0.5 greater than or equal to -100 mmHg?
RESULT: FALSE

QUERY: Quick check: does `Cc1ccccc1CN1CCC(=C2c3ccccc3C=Cc3ccccc32)CC1.Cl` have Decrease in systolic blood pressure (mmHg) time after administration (hour) 0.5 greater than or equal to -100 mmHg?
RESULT: FALSE

QUERY: Quick check: does `C1=Cc2ccccc2C(=C2CCN(CCC3CCCCC3)CC2)c2ccccc21.Cl` have Decrease in systolic blood pressure (mmHg) time after administration (hour) 0.5 greater than or equal to -100 mmHg?
RESULT: TRUE
